system: HS 578T breast; test: NCI tumour cell line growth inhibition, 48 h
Reported TGI is given for each of the following molecules.

Below, each entry is followed by its recorded TGI result.
NNC(=O)CSc1nc2ccc(I)cc2c(=O)n1Cc1ccccc1 ... 52.5 µM
CCCCCC(C)(C)CCC(=O)OC1OC(COC2OC(COC3OC(CO)C(O)C(O)C3O)C(O)C(O)C2O)C(O)C(O)C1O (stereo not given) ... > 100 µM
Brc1ccc2[nH]cc(-c3csc(-c4ccccn4)n3)c2c1 ... > 100 µM
Nc1sc2c(c1C(=O)c1ccc(Cl)c(Cl)c1)CCCC2 ... > 100 µM

Given COc1ccccc1/C=C/C1=NN(c2cccc(S(=O)(=O)O)c2)C2(C1)SCC(=O)N2c1nc2ccccc2s1 (stereo not given) , state its recorded TGI.
> 100 µM

Given CCOC(=O)CN1C(=O)c2c(c(C)n(-c3ccccc3)c2C)C1=O , state its recorded TGI.
> 100 µM

Given O=C1C(Cl)=C(Nc2cccc(Cl)c2)C(=O)N1Cc1ccccc1 , state its recorded TGI.
27.5 µM

Given Cc1ccc(S(=O)(=O)OC2CCN(C)CC2)cc1 , state its recorded TGI.
> 100 µM

Given COc1cc(C2SC(N)=Nc3c2c(C)nn3C(=O)c2ccccc2O)cc(OC)c1OC (stereo not given) , state its recorded TGI.
8.53 µM

Given O=C(Nn1c(-c2ccccc2)nc2ccccc2c1=O)c1ccc(CS)cc1 , state its recorded TGI.
> 100 µM

Source of measurements: PubChem BioAssay (NCI)
